- assay.system: Receptor-interacting serine/threonine-protein kinase 2 (Homo sapiens, UniProt O43353); further: in the data inactive means no Kd found up to 30 µM
- Sequence (O43353 whole entry): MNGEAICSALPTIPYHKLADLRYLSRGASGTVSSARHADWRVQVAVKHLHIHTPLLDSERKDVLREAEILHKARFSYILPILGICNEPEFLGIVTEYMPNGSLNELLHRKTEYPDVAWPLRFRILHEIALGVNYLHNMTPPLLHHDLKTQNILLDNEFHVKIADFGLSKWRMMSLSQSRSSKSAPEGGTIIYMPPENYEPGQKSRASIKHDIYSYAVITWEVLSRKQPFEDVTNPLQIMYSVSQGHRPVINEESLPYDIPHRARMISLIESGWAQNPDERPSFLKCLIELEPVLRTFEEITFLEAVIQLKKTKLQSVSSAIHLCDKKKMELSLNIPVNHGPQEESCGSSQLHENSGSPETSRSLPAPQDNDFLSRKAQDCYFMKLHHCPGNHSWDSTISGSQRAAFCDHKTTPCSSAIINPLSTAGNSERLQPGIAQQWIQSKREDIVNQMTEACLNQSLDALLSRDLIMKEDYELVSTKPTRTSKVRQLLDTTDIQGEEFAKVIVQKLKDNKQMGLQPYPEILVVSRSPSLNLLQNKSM
Activity calls are given as the source filed them.
Outcome codes: y = active, n = inactive

sample.smiles	discrete.label
CCn1cc(-c2ccnc3[nH]c(-c4cccc(CN(C)C)c4)cc23)c(-c2ccc(NC(=O)N(C)C)cc2)n1	y
O=C(Nc1c[nH]nc1-c1nc2cc(CN3CCOCC3)ccc2[nH]1)NC1CC1	n
C[C@@H](N)c1ccc(C(=O)Nc2ccnc3[nH]ccc23)cc1	n
CN1CCN(CCOc2cc(OC3CCOCC3)c3c(Nc4c(Cl)ccc5c4OCO5)ncnc3c2)CC1	y
CO[C@H]1C[C@@H]2CC[C@@H](C)[C@@](O)(O2)C(=O)C(=O)N2CCCC[C@H]2C(=O)O[C@H]([C@H](C)C[C@@H]2CC[C@@H](OP(C)(C)=O)[C@H](OC)C2)CC(=O)[C@H](C)/C=C(\C)[C@@H](O)[C@@H](OC)C(=O)[C@H](C)C[C@H](C)/C=C/C=C/C=C/1C	n
O=C(Nc1nc2cccc(-c3ccc(CN4CCS(=O)(=O)CC4)cc3)n2n1)C1CC1	n
CCn1c(C(=O)N(C2CC2)C2CC2)cc2c3c(ncn3C)c(Nc3cc(C)n(C)n3)nc21	n

Data credit: ChEMBL document CHEMBL3991601
